Tested on: NALM-16;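 also: ALL cell lines in 384-well plates, five doses spanning 10,000-fold, each plate scaled between vehicle and 100 µmol/L benzalkonium chloride controls, sDSS an adapted area-under-curve metric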
assay: selective drug sensitivity score (sDSS, relative to normal bone marrow) (sDSS (score)); higher = more potent and effective on the cell line relative to normal bone marrow cells
protocolConditions: 72 h
Hi, to clarify the labels: Fulfilled covers selective drug sensitivity score from 2 upward, Not fulfilled covers anything below 2.

1) CCNC(=O)C[C@@H]1N=C(c2ccc(Cl)cc2)c2cc(OC)ccc2-n2c(C)nnc21 [Molibresib] (top concentration 10000 nM)	Not fulfilled
2) C=CC(=O)Nc1cccc(Nc2nc(Nc3ccc(N4CCN(C(C)=O)CC4)cc3OC)ncc2C(F)(F)F)c1 [Rociletinib] (top concentration 10000 nM)	Fulfilled
3) COc1cccc2c1C(=O)c1c(O)c3c(c(O)c1C2=O)C[C@@](O)(/C(CO)=N/NC(=O)CCCCCN1C(=O)C=CC1=O)C[C@@H]3O[C@H]1C[C@H](N)[C@H](O)[C@H](C)O1 [Aldoxorubicin] (top concentration 1000 nM)	Not fulfilled
4) COc1cc2c(Nc3ccc(Cl)c(Cl)c3F)ncnc2cc1OC[C@@H]1C[C@@H]2CN(C)C[C@@H]2C1 [Tesevatinib] (top concentration 1000 nM)	Not fulfilled
5) C[C@H]1O[C@@H](O[C@H]2[C@@H](O)C[C@H](O[C@H]3[C@@H](O)C[C@H](O[C@H]4CC[C@@]5(C)[C@H](CC[C@@H]6[C@@H]5C[C@@H](O)[C@]5(C)[C@@H](C7=CC(=O)OC7)CC[C@]65O)C4)O[C@@H]3C)O[C@@H]2C)C[C@H](O)[C@@H]1O [Digoxin] (top concentration 1000 nM)	Fulfilled
